molecular target: Akt2 (Homo sapiens)
Sequence (P31751 whole entry): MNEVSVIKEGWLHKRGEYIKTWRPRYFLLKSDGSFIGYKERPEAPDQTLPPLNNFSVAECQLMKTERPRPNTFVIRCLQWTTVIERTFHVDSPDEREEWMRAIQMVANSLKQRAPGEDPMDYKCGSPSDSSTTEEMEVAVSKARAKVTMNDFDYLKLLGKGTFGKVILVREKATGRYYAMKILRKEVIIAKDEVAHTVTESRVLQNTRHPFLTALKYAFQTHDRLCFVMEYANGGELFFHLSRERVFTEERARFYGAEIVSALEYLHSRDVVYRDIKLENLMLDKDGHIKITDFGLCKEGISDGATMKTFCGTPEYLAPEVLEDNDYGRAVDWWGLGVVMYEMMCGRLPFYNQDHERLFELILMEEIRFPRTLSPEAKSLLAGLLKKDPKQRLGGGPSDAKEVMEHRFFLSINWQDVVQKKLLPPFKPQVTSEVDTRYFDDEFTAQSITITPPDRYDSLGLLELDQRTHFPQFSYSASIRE
pIC50: −log10 of the molar value.
Give fulfilled when the value for pIC50 is at least 7. Give not fulfilled when it is less.

>>> label_value("NC[C@H](Cc1ccc(F)c(F)c1)NC(=O)c1cc2c(s1)CCCn1ncc(Cl)c1-2")
"fulfilled"
>>> label_value("NC[C@H](Cc1ccccc1C(F)(F)F)NC(=O)c1cc2c(s1)CCCn1ncc(Cl)c1-2")
"fulfilled"
>>> label_value("NC[C@H](Cc1cccnc1)NC(=O)c1cc2c(s1)CCCn1ncc(Cl)c1-2")
"not fulfilled"
>>> label_value("NC[C@H](Cc1cc(F)cc(F)c1)NC(=O)c1cc2c(s1)CCCn1ncc(Br)c1-2")
"fulfilled"
>>> label_value("NC[C@H](Cc1cccc(F)c1)NC(=O)c1cc2c(s1)CCCn1ncc(F)c1-2")
"not fulfilled"
>>> label_value("NC[C@H](Cc1cccc(F)c1)NC(=O)c1cc2c(s1)CCCn1ncc(-c3ccccc3)c1-2")
"not fulfilled"

Evaluate N#Cc1cnn2c1-c1cc(C(=O)N[C@H](CN)Cc3ccc(F)c(F)c3)sc1OCC2 : pIC50 at minimum 7?
not fulfilled

====

For reference, IC50 measured on Akt1 (Homo sapiens, UniProt P31749):
Remember to put the unit after the number in your answer.

>>> value_reported("NC[C@H](Cc1ccccn1)NC(=O)c1cc2c(s1)CCCn1ncc(Br)c1-2 [Embodiment 20]")
"11 nM"

Consider the compound shown here: NC[C@H](Cc1cccc(C(F)(F)F)c1)NC(=O)c1cc2c(s1)CCCn1ncc(Cl)c1-2 [Embodiment 11] What is its recorded IC50?
2.28 nM

Same question, NC[C@H](Cc1ccc(F)cc1F)NC(=O)c1cc2c(s1)CCCn1ncc(Cl)c1-2 [Embodiment 5] this time
2.54 nM

Also need NC[C@H](Cc1ccc(Cl)cc1)NC(=O)c1cc2c(s1)CCCn1ncc(Cl)c1-2 [Embodiment 8] , thanks.
3.62 nM

Item: NC[C@H](Cc1cccc(F)c1)NC(=O)c1cc2c(s1)CCCn1ncc(-c3cccnc3)c1-2 [Embodiment 24]
67.4 nM

What would you report for NC[C@H](Cc1ccncc1)NC(=O)c1cc2c(s1)CCCn1ncc(Cl)c1-2 [Embodiment 3] ?
39 nM

====

Akt1 (Homo sapiens, UniProt P31749): recorded pIC50 for assorted compounds
Sequence (P31749 whole entry): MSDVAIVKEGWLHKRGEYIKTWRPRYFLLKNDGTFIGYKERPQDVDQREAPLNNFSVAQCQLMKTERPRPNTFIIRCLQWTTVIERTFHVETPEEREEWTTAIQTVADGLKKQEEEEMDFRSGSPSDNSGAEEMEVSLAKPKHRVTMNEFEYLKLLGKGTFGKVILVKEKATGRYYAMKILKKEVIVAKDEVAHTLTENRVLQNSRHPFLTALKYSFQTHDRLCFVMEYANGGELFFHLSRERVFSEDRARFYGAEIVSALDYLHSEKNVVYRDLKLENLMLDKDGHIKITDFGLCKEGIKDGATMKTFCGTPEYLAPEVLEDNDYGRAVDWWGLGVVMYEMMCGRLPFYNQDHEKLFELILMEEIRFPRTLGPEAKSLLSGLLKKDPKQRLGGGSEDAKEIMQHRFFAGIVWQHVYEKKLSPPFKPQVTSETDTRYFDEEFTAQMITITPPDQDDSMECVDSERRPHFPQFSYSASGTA
// pIC50: -log10(molar conc.)

Guide cases for pIC50, answers given:
>>> value_reported("Cc1cnn2c1-c1cc(C(=O)N[C@H](CN)Cc3ccc(F)c(F)c3)sc1OCC2")
8.82
>>> value_reported("NC[C@H](Cc1ccc(F)c(F)c1F)NC(=O)c1cc2c(s1)CCCn1ncc(Br)c1-2")
9.17
>>> value_reported("Cc1cnn2c1-c1cc(C(=O)N[C@H](CN)Cc3cc(F)cc(F)c3)sc1OCC2")
9.06
>>> value_reported("NC[C@H](Cc1cccc(Cl)c1)NC(=O)c1cc2c(s1)CCCn1ncc(Cl)c1-2")
9.22
>>> value_reported("NC[C@H](Cc1ccc(F)c(F)c1)NC(=O)c1cc2c(s1)CCCn1ncc(Cl)c1-2")
9.15

Requested field: pIC50. Item: NC[C@H](Cc1ccc(F)c(F)c1)NC(=O)c1cc2c(s1)OCCn1ncc(Br)c1-2
8.76
